assayed_target: T1, human LILRA6 (human, UniProt Q6PI73 24-481)
T1 construct: Over-expressed on CHO-s cells; also called hLILRA6
T1 sequence (Q6PI73 24-481 limits assumed): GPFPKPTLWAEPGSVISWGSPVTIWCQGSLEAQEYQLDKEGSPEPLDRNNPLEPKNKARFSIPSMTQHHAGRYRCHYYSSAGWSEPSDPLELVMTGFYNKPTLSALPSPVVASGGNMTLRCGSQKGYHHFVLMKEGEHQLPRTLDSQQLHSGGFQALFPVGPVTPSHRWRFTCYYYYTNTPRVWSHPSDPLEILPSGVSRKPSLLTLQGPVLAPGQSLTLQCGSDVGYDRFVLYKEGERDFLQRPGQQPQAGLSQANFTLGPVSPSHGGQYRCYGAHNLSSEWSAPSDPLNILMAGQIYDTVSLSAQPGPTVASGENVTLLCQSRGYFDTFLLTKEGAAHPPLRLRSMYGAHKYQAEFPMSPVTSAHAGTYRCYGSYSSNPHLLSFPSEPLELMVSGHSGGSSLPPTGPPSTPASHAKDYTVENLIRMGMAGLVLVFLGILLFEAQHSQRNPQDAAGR
measurement_notes: flow cytometry, LILRA6 CHOs
parameter_measured: binding result

| binder | value |
| --- | --- |
| J-19.h4 (antibody, human IgG4 S228P, kappa, V domains shown, Humanized, human IgG4 backbone) VH: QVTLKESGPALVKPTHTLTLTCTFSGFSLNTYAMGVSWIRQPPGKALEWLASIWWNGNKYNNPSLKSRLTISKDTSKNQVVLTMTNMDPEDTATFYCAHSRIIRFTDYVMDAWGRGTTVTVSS VL: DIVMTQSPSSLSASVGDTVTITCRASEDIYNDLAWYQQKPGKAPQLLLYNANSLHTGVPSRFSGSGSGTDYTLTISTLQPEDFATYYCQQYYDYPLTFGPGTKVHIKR | no binding |
| J-19.h3 (antibody, human IgG4 S228P, kappa, V domains shown, Humanized, human IgG4 backbone) VH: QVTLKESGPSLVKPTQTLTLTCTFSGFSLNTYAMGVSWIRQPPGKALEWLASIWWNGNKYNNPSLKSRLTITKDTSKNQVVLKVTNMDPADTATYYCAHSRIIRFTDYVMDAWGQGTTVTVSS VL: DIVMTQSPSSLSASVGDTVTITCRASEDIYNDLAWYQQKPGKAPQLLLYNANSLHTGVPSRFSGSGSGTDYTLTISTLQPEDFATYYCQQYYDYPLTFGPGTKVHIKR | no binding |
| J-19.h1 (antibody, human IgG4 S228P, kappa, V domains shown, Humanized, human IgG4 backbone) VH: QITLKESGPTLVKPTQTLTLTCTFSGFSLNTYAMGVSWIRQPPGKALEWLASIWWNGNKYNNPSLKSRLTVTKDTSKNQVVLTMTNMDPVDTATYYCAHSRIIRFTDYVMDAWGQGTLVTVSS VL: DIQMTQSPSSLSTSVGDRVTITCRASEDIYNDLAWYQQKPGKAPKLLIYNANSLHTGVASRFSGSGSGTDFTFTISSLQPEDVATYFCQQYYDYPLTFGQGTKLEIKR | no binding |
